Biological target: Delta-type opioid receptor (Homo sapiens, UniProt P41143)
Sequence (P41143 whole entry): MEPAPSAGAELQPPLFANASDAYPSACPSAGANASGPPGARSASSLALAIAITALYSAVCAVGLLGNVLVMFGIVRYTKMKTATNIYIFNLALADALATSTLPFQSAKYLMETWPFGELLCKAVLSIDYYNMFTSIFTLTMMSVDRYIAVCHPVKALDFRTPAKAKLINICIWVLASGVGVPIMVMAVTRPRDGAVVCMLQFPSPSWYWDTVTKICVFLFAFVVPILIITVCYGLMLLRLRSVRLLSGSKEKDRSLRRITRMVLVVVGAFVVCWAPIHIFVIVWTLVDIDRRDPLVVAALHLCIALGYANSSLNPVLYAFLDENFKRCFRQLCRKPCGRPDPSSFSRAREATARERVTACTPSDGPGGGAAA
Assay: Counterscreen for agonists of heterodimerization of the mu 1 (OPRM1) and delta 1 (OPRD1) opioid receptors: Luminescence-based cell-based high throughput dose response assay to identify agonists of OPRD1 homodimerization. [Related pubchem assays (depositor defined):AID504326, AID504355, AID504692, AID504904, AID504905]
Assay type: functional
Active and inactive are the calls of the source.
readout-label: EC50

Check out these entries, answers already filled in.
>  <compound>
COC(=O)c1cc2c(n1S(=O)(=O)c1ccc(C)cc1)C(=O)C(=O)c1[nH]cc(C(=O)OCc3ccccc3)c1-2

>  <EC50>
> 92.4 µM (inactive)

$$$$
>  <compound>
COc1ccc(C(C(=O)NC2CCCCC2)N(C(=O)Cc2c[nH]c3ccccc23)c2ccc(NC(C)=O)cc2)cc1OC (centres undefined)

>  <EC50>
> 92.5 µM (inactive)

$$$$
>  <compound>
Brc1ccc(NC2=Nc3ccccc3CC2)cc1

>  <EC50>
> 92.5 µM (inactive)

$$$$

// query Sample O=C1C=C(c2c(O)ccc3ccccc23)c2ccccc2C1=O — what was its EC50?
// result > 92.4 µM (inactive)

---

Molecular target: Protein RecA (Mycobacterium tuberculosis, UniProt P9WHJ3)
Sequence (P9WHJ3 whole entry): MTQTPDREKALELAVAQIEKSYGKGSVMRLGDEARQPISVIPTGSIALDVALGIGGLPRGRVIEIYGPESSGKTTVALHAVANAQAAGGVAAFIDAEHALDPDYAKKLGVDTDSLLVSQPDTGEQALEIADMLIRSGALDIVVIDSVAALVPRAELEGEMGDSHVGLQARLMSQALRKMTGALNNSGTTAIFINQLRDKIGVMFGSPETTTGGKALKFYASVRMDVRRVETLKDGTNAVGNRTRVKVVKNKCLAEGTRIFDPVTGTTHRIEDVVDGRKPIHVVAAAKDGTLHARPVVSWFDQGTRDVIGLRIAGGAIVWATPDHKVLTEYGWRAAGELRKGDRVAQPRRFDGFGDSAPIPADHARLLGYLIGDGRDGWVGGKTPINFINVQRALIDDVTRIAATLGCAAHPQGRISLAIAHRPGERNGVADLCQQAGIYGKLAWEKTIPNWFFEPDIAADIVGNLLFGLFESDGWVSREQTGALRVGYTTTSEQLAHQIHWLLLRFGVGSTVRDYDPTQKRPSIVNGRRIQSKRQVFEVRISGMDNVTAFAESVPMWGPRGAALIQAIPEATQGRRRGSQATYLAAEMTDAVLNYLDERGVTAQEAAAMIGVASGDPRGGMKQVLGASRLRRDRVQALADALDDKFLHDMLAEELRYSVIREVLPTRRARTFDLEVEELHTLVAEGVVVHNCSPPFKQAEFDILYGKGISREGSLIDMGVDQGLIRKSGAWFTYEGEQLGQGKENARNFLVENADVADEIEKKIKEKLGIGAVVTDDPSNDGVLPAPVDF
Test: Fluorescence Cell-Free Homogeneous Dose Retest to Identify Inhibitors of RecA-Intein Splicing Activity. [Related pubchem assays (depositor defined):AID2097, AID2223, AID489010, AID492950]
Format: functional
The source made the active and inactive calls.
Recorded EC50 values for a group of molecules are listed next.

Please review the entries below; each comes with its answer.
>  <substance-smiles>
O=C1C(Cl)=C(N2CCOCC2)C(=O)N1c1cccc(C(F)(F)F)c1

>  <EC50>
1640 nM (active)

$$$$
>  <substance-smiles>
Cc1nc2c(=O)n(C)c(=O)nc-2n(C)n1

>  <EC50>
20.9 nM (active)

$$$$
>  <substance-smiles>
Oc1nc(Nc2ccccc2Cl)cc2ccccc12

>  <EC50>
1990 nM (active)

$$$$

// query Using the record for O=C(CCl)Nc1cn(-c2ccccc2)nc1-c1ccccc1 , report its EC50.
// result 6320 nM (active)

// query Next: Cc1ccccc1N(Cc1cc(O)nc2ccccc12)C(=O)CCl
// result 6260 nM (active)

// query What do you have for O=C1/C(=N\S(=O)(=O)c2ccc([N+](=O)[O-])cc2)C(Cl)=C(O)c2ccccc21 ?
// result 1260 nM (active)

// query Please give the result for Nc1scc2c(C(=O)N/N=C/c3ccc(Cl)cc3)nn(-c3ccccc3)c(=O)c12 too.
// result 5710 nM (active)
